These entries and their values trace back to patent US9676779B2.

testedOn: delF508-CFTR (Homo sapiens, UniProt P13569, DEL508-508)
Construct: Unaltered CFBE41o− cells were used as the model; endogenous in cells; host or cells: CFBE41o- human CF bronchial epithelial cells (delF508 homozygous, not overexpressing)
Sequence (P13569 with tags, fused parts or gaps DEL508-508): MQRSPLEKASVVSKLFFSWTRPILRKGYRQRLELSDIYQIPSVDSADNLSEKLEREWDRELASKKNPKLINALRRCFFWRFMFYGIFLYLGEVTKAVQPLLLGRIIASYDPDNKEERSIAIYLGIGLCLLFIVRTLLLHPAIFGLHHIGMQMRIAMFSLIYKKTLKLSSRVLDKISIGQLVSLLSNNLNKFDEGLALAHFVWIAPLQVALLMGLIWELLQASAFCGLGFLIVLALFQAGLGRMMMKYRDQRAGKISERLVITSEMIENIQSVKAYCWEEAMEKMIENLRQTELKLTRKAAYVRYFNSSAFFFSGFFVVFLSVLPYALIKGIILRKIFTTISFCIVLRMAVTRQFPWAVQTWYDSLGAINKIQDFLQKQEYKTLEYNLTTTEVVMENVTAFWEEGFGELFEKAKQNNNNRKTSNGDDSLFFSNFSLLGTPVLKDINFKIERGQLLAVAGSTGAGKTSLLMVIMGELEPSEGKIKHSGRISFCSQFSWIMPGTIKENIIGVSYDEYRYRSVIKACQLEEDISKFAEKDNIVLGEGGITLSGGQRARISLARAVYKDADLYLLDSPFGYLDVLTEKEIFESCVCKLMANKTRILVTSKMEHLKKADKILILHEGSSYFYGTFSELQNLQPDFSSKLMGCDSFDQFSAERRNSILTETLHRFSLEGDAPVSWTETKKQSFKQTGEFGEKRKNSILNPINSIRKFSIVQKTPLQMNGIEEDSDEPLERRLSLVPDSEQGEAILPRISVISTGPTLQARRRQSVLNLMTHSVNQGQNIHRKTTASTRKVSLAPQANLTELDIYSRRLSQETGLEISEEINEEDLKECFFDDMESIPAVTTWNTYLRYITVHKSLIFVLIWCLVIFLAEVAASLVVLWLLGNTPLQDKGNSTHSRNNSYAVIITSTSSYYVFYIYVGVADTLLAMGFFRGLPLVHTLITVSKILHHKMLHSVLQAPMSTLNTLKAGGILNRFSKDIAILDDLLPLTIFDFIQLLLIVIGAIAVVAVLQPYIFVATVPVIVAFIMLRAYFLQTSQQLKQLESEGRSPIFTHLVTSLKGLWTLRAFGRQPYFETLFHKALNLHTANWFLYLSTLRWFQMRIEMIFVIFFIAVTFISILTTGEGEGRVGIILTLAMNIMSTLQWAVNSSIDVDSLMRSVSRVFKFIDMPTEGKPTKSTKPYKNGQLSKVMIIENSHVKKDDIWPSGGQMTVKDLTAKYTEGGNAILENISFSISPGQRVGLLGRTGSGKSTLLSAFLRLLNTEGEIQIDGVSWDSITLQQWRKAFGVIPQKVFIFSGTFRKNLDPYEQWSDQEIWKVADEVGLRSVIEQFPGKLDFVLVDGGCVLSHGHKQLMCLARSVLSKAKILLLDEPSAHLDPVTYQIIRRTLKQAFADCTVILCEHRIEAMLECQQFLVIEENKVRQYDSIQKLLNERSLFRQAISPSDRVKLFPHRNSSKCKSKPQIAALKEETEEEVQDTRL
experimentalDetails: SPQ halide-sensitive fluorescence dye profiling assay (rescue of halide efflux)
Type: cell-based
experimentalConditions: VX-809 at 3 μM treated as 100% efficacy
Attribute: Emax
Unit % implied. Number only.

Check out these entries, answers already filled in.
>  <compound>
Cc1nn2c(C)c(C(=O)OC(C)(C)C)nnc2c1-c1ccc(Cl)c(Cl)c1 [Compound C-34]

>  <unitInfo>
%

>  <Emax>
0

$$$$
>  <compound>
Cc1cnc(-c2nnc3c(-c4ccc(Cl)c(Cl)c4)c(C)nn3c2C)o1 [Compound C-41]

>  <unitInfo>
%

>  <Emax>
0

$$$$
>  <compound>
CCOC(=O)c1nnc2c(-c3ccc(Cl)c(Cl)c3)c(C)nn2c1C(=O)OCC [Compound C-26.1]

>  <unitInfo>
%

>  <Emax>
0

$$$$

## Task Value lookup for Emax; key = Cc1c(C(=O)O)nnc2c(-c3ccc(Cl)cc3)cnn12 [Compound C-2]
## Result 170
